Here is a set of molecules with reported Ki for UniProtKB P31652, compiled from the literature.
# unit: nM | format: bare number

Sample answers from the record:
[
  {
    "molecule": "CC(C)NC(=O)c1ccc(F)c2c1CC(N(CCCc1c[nH]c3ccc(F)cc13)C1CCC1)CO2 (stereo not drawn)",
    "Ki, nM": 11.3
  },
  {
    "molecule": "O=c1c(-c2ccc(F)cc2)c2ccccn2c(=O)n1CCCCN1CCCC(c2c[nH]c3ccc(F)cc23)C1 (stereo not drawn)",
    "Ki, nM": 30
  },
  {
    "molecule": "COc1ccc(C2CNCc3cc(OCCCN4CCCCC4)ncc32)cc1 (stereo not drawn)",
    "Ki, nM": 46
  },
  {
    "molecule": "CC(C)n1cc([C@H]2CC[C@@H](N3CCN(c4cccc5[nH]ccc45)CC3)CC2)c2cc(C#N)ccc21",
    "Ki, nM": 38.5
  }
]

Noted for COc1ccc(C2CN(C)Cc3cc(OCCCNC4CC4)ccc32)cc1 (stereo not drawn) : its Ki reads 3

Noted for "COCc1cc(I)ccc1Sc1ccccc1CN(C)C" : its Ki reads 2.5

Noted for "Oc1ccc(CN[C@H]2CC[C@@H](C(c3ccccc3)c3ccccc3)OC2)cc1" : its Ki reads 29.1

Noted for "Oc1ccc(CN[C@H]2CC[C@@H](CC(c3ccccc3)c3ccccc3)OC2)cc1" : its Ki reads 346

----------
Here is a set of molecules with reported Ki for Sodium-dependent serotonin transporter (Rattus norvegicus), compiled from the literature.
# unit: nM | format: bare number

[
  {
    "molecule": "Cc1ccc(NC(=O)Nc2ccc(OC(CCN(C)C)c3ccccc3)cc2)cc1Cl (stereo unspecified)",
    "unit name": "nM",
    "Ki": 61.4
  }
]

Noted for "CCCCC1CCN(CCCN2C(=O)CCc3ccccc32)CC1" : its Ki reads 8910

Noted for "O=C1COc2ccc(OC3CCN(CCOc4cccc5[nH]ccc45)CC3)cc2N1" : its Ki reads 5.01

Noted for "Fc1ccc2[nH]cc(CCNCCOc3cccc4c3OCCO4)c2c1" : its Ki reads 13.5

----------
Here is a set of compounds with reported Ki for Sodium-dependent serotonin transporter (Rattus norvegicus, UniProt P31652), compiled from the literature.

Sample answers from the record:
[
  {
    "compound": "COc1ccc2[nH]cc(C3CCN(CCCCn4c(=O)c(-c5ccc(Cl)cc5)c5ccccn5c4=O)CC3)c2c1",
    "Ki": "251 nM"
  },
  {
    "compound": "Oc1ccc(CN[C@@H]2CO[C@H](C(c3ccccc3)c3ccccc3)C2)cc1",
    "Ki": "1150 nM"
  },
  {
    "compound": "CCN(CC)C(=O)[C@@]1(c2ccccc2)C[C@H]1C(N)C(=O)O (stereo not given in full)",
    "Ki": "> 100000 nM"
  },
  {
    "compound": "C#CC(N)[C@@H]1C[C@@]1(C(=O)N(CC)CC)c1ccccc1 (stereo in doubt; 2d)",
    "Ki": "190 nM"
  }
]

Now take the following compound into account.
GET /values?item= "Cc1ccc2c3c(ccc2n1)OC[C@H](CN1CCN(c2ccc4ccccc4n2)CC1)O3" &system= Sodium-dependent serotonin transporter (Rattus norvegicus, UniProt P31652) returns Ki: 75 nM

----------
Here is a set of molecules with reported Ki for Sodium-dependent serotonin transporter (Rattus norvegicus, UniProt P31652), compiled from the literature.
# unit: µM | format: bare number

[
  {
    "molecule": "COc1ccc(NC(=O)Nc2ccc(OC(CCN(C)C)c3ccccc3)cc2)cc1C(F)(F)F (stereo not drawn)",
    "measured value": 0.0964
  }
]

GET /values?item= "Cc1ccc2c3c(ccc2n1)OC[C@H](CN1CCN(c2ccc4cc(F)ccc4n2)CC1)O3" &system= Sodium-dependent serotonin transporter (Rattus norvegicus, UniProt P31652) returns Ki: 0.066

GET /values?item= "Fc1ccc2[nH]cc([C@H]3CC[C@H](N4CCN(c5cccc6c5OCCO6)CC4)CC3)c2c1" &system= Sodium-dependent serotonin transporter (Rattus norvegicus, UniProt P31652) returns Ki: 0.0672
